System: Plasmodium falciparum
Assay: Screen against P. falciparum Asexual Blood Stage (ABS), at 5uM
Type: functional, Dd2
Details: tested at 5 uM
Among all 65,000 compounds or so, about 2,100 (3.2%) showed an effect of 50% or more. The median lay at about -52%. Shown is part of a subset that was picked to be rich in strong results.
readout.kind: INHIBITION (%)
Express the result in % but write the number alone.

Query: Entry O=C(NCCCOCC1CC1)Nc1ccc(-n2cncn2)c(F)c1 needs its INHIBITION filled in; supply it.
Reply: 88.3

Query: Give INHIBITION for O=C1CCC2(CCCN(C(=O)c3ccco3)CC2)N1 (stereo unspecified)
Reply: 40.8

Query: Report INHIBITION for CC(=O)N1CC2(CCNCC2)c2cc(Cl)ccc21
Reply: 3.4

Next:
Query: Supply recorded INHIBITION for O=C(c1ccco1)N1CCO[C@@H]2CNCC[C@@H]2C1 here.
Reply: -138

Query: Determine its reported INHIBITION: NC(=O)N1CC2(CCNCC2)c2cc(Cl)ccc21
Reply: -61

Query: Return the recorded INHIBITION value; entry: O=C(c1ccccc1F)N1CC2(CCNCC2)c2cc(Cl)ccc21
Reply: 77

Query: Find the measured INHIBITION of COc1cccc(OC)c1CN1CC(=O)N(c2ccc(C)cc2)CC1C (stereo unspecified) and report it.
Reply: 75.2

Query: Check the records and state INHIBITION for CN(C)C(=O)CN1CCCC12CCCN(c1ncc(F)cn1)C2 (stereo unspecified)
Reply: -30.5

Query: Tell me measured INHIBITION for O=C(c1cn(Cc2ccccc2)c2ncccc12)N1CCOCC1 please.
Reply: -68.2

Query: Give the value of INHIBITION reported for the following: Cc1cccc(OCC(=O)N2CCN(C3CCOC3=O)CC2)c1C (stereo unspecified)
Reply: -13.7

Query: Give the measured INHIBITION for CNC(=O)CN1CC[C@H]2CN(C(=O)c3ccc(C)nc3)C[C@H]2C1
Reply: -17.9
